Target: T1, human CD200R1 isoform a on CHOK1 cells (CHOK1/hCD200R1a) (human, UniProt Q8TD46 25-348)
T1 construct: also called CHOK1/CD200R1a
T1 sequence: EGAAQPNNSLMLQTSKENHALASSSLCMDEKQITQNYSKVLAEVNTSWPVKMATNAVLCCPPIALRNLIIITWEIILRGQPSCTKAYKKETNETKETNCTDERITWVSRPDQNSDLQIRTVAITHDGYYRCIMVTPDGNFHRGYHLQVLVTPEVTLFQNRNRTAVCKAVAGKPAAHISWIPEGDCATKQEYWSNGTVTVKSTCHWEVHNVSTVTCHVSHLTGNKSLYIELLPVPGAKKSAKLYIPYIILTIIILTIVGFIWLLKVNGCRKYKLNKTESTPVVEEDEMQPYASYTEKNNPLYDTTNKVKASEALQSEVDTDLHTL
Assay: flow cytometry blocking assay: biotin-labelled human CD200 binding to CHOK1/hCD200R1a cells; y axis Inhibition %

binder	Blocking(Max)
PR007630 (antibody, human IgG1, kappa, V domains shown, PTM variant of PR006839 (human IgG1)) VH: QVQLVESGGGVVQPGRSLRLSCAASGFTFSSYGFHWVRQAPGKGLEWLGIIWSDASNKYYADSVKGRFTISRDNSKNTLYLQMNSLRAEDTAVYYCARDRIVGEGFDYWGQGTLVTVSS VL: DIVMTQSPLSLPVTPGEPASISCRSSQSLLHRSGYNYLDWYLQKPGQSPQLLIYLGSYRASGVPDRFSGSGSGTDFTLKISRVEAEDVGVYYCMQGLQTMYTFGQGTKLEIKR	99.9%
PR002906 (antibody, V domains shown, also called recombinant IgG1 antibody of huDX182) VH: QVQLQESGPGLVKPSETLSLTCTVSGYTITSGYDWSWIRQPPGKGLEWIGYINYGGSTNYKPSLGSRVTISVDTSKNQFSLKLSSVTAADTAVYYCARYNEYKSYIYDWYFDFWGQGTLVTVSS VL: DIQMTQSPSSLSASVGDRVTITCKASKNIRSYLAWYQQKPGKAPKLLIYSGSTLHSGVPSRFSGSGSGTDFTLTISSLQPEDFATYYCQQHHEYPLTFGQGTKVEIKR	96.6%
PR007974 (antibody, human IgG1, kappa, V domains shown, PTM variant of PR006839 (human IgG1)) VH: QVQLVESGGGVVQPGRSLRLSCAASGFTFSYYGFHWVRQAPGKGLEWLGLIWSDARHKDYADSVKGRFTISRDNSKNTLYLQMNSLRAEDTAVYYCARDRIVGEGFDYWGQGTLVTVSS VL: DIVMTQSPLSLPVTPGEPASISCRSSQSLLHRSGYNYLDWYLQKPGQSPQLLIYLGSYRASGVPDRFSGSGSGTDFTLKISRVEAEDVGVYYCQQGIQTTYTFGQGTKLEIKR	98%
PR007631 (antibody, human IgG1, kappa, V domains shown, PTM variant of PR006839 (human IgG1)) VH: QVQLVESGGGVVQPGRSLRLSCAASGFTFSSYGFHWVRQAPGKGLEWLGLIWSDARHKDYADSVKGRFTISRDNSKNTLYLQMNSLRAEDTAVYYCARDRIVGEGFDYWGQGTLVTVSS VL: DIVMTQSPLSLPVTPGEPASISCRSSQSLLHRSGYNYLDWYLQKPGQSPQLLIYLGSYRWSGVPDRFSGSGSGTDFTLKISRVEAEDVGVYYCMQGLQTMYTFGQGTKLEIKR	99.9%
